experimental_system: HIV-1 nucleocapsid protein (NC) (HIV-1 NL4-3, UniProt P12493)
experimental_details: ITC; exothermic sites, n=2.8±0.3; ITC: 10 mM Tris-HCl pH 7.0, 140 mM KCl, 10 mM NaCl, 5 mM MgCl2, 5 mM TCEP, 30 °C; NC (120-240 µM) titrated into RNA (0.6-4 µM)
study_conditions: protein: recombinant; tags: none stated; hairpin, unpaired 5'-GA and AG-3' ends
pKd: −log10 of the molar value.

[
  {
    "binder": "GAUUUUGACUAGCGGAGGCUAGAAGGAGAG (structured_RNA) [ΨHP]",
    "pKd": 5.81
  }
]
